Reference source: patent US8562945B2

ASSAY PROCEDURE: Rat tissue distribution of 99mTc complexes of example ligands (Table 6)
Type: in vivo, Sprague-Dawley Rats
CONDITION NOTES: 99mTc complex, Kidney, 30 min
MEASURE NAME: Kidney tissue distribution (% ID/g)
Only the number, expressed in % ID/g, is required.

COMPOUND | QUANTITY UNIT | Kidney tissue distribution
N[C@@H](CCCCN(Cc1ccccn1)Cc1ccccn1)C(=O)O [DpK, [ε-{N,N-di(pyridyl-2-methyl)}α-lysine], reference compound] | % ID/g | 4.94
Cn1ccnc1CN(CCCC[C@H](N)C(=O)O)CC(=O)O [Compound 18] | % ID/g | 17.05
COC(Cn1ccnc1CN(CCCC[C@H](N)C(=O)O)Cc1nccn1CC(OC)OC)OC (stereo in doubt) [Compound 6] | % ID/g | 34.1

Query: Kidney tissue distribution; subject: N[C@@H](CCCCN(Cc1nccs1)Cc1nccs1)C(=O)O [DtK, (dithiazole)lysine]
4.71

# lookup: Kidney tissue distribution of CCOCCn1ccnc1CN(CCCC[C@H](N)C(=O)O)Cc1nccn1CCOCC (stereo in doubt) [Compound 4]
12.13

---

ASSAY PROCEDURE: Rat tissue distribution of 99mTc complexes of example ligands (Table 6)
Format: in vivo, Sprague-Dawley Rats
CONDITION NOTES: 99mTc complex, Liver, 30 min
Experimental: Rat Tissue Distribution Studies. The distribution and pharmacokinetics of selected ^99mTc-SAAC complexes were evaluated in normal male Sprague Dawley rats (180-200 grams) administered via the tail vein as a bolus injection (approximately 10 μCi/rat) in a constant volume of 0.1 ml. […] Tissue time-radioactivity levels expressed as percent injected dose per gram of tissue (% ID/g) was determined. […]
# Liver tissue distribution per entry

MOLECULE | OBSERVED RESULT
CCOCCn1ccnc1CN(CCCC[C@H](N)C(=O)O)Cc1nccn1CCOCC (stereo in doubt) | 0.35 ± 0.08 % ID/g
N[C@@H](CCCCN(Cc1ccccn1)Cc1ccccn1)C(=O)O [DpK, [ε-{N,N-di(pyridyl-2-methyl)}α-lysine], reference compound] | 2.75 ± .011 % ID/g
Cn1ccnc1CN(CCCC[C@H](N)C(=O)O)Cc1nccn1C | 1.03 ± 0.21 % ID/g
N[C@@H](CCCCN(Cc1nccn1CC(=O)O)Cc1nccn1CC(=O)O)C(=O)O (stereo in doubt) | 0.55 ± 0.07 % ID/g

Quick one: Liver tissue distribution of `Cn1ccnc1CN(CCCC[C@H](N)C(=O)O)CC(=O)O` ?
3.02 ± 0.59 % ID/g

So what's the measured Liver tissue distribution for this one? `N[C@@H](CCCCN(Cc1nccs1)Cc1nccs1)C(=O)O`
1.93 ± 0.15 % ID/g

---

ASSAY PROCEDURE: Rat tissue distribution of 99mTc complexes of example ligands (Table 6)
Type: in vivo, Sprague-Dawley Rats
CONDITION NOTES: 99mTc complex, Liver, 120 min
Consider the following compounds and their measured Liver tissue distribution readings.
State the value, then name its unit.

COMPOUND | OBSERVED RESULT
N[C@@H](CCCCN(Cc1nccn1CC(=O)O)Cc1nccn1CC(=O)O)C(=O)O (stereo in doubt) | 0.39 ± 0.07 % ID/g

// query Liver tissue distribution value for entry COC(Cn1ccnc1CN(CCCC[C@H](N)C(=O)O)Cc1nccn1CC(OC)OC)OC (stereo in doubt)
0.16 ± 0.02 % ID/g

Reported Liver tissue distribution, compound `N[C@@H](CCCCN(Cc1nccs1)Cc1nccs1)C(=O)O` : ____
2.61 ± 0.31 % ID/g
